target: Adrenergic receptor alpha-2 (Rattus norvegicus) (UniProt P22086+P19328+P22909); assay: Antagonism at alpha-2 adrenergic receptor, determined as dose required to produce a two fold shift of the dose-response curve to UK-14304 on the twitch response in rat vas deferens; assay type: functional, tissue-based
Would you please tag the item Yes when its Prejunctional antagonist potency is 7 or above, and No when it is below?

# count of solved cases: 5
In: Is reported Prejunctional antagonist potency greater than or equal to 7 here: c1ccc2c(c1)CC(C1=NCCN1)C2
Out: No

In: Same question, CCC1(C2=NCCN2)Cc2ccccc2N1C (centres undefined) this time
Out: No

In: Repeat with CCN1c2cccc(Cl)c2CC1C1=NCCN1 (centres undefined)
Out: Yes

In: Continue with CN1c2ccccc2CC1C1=NCCN1 (centres undefined)
Out: No

In: Repeat with CCN1c2ccccc2CC1(C)C1=NCCN1 (centres undefined)
Out: No

***
In: Confirm if Prejunctional antagonist potency reported for the compound CN1c2cccc(Cl)c2CC1C1=NCCN1.Cl (centres undefined) is 7 or above.
Out: Yes

In: // same read-out, input: Cl.c1ccc(N2c3ccccc3CC2C2=NCCN2)cc1 (centres undefined)
Out: No

In: // same read-out, input: CCN1c2ccccc2CC1C1=NCCN1 (centres undefined)
Out: Yes

In: And the next one, c1ccc2c(c1)CC(C1=NCCN1)O2 (centres undefined) ?
Out: No

In: Another compound to check: CCCN1c2ccccc2CC1C1=NCCN1 (centres undefined)
Out: No

In: One more compound: COc1cccc2c1CC(C1=NCCN1)N2C (centres undefined)
Out: No

In: Next compound: c1ccc(COCCN2c3ccccc3CC2C2=NCCN2)cc1 (centres undefined)
Out: No

In: CCN1c2ccc(Cl)cc2CC1C1=NCCN1 (centres undefined) ?
Out: Yes

====

system: Rattus norvegicus; experiment: In vivo ED40 is the raising diastolic blood pressure by 40 mm Hg in pithed rats. (postjunctional); type: functional; conditions: Artery
The following molecules are shown together with reported ED40 values.
Dear colleague, please return just the value in µg/kg, with no unit written.

As a guide, the following entries are already answered.
In: # input molecule: CN1c2cccc(Br)c2CC1C1=NCCN1 (stereo not drawn) ; wanted: its ED40
Out: 0.3

In: Ok, now CN1c2ccc(Cl)cc2CC1C1=NCCN1 (stereo not drawn)
Out: 14.3

In: For CCCN1c2ccccc2CC1C1=NCCN1 (stereo not drawn) then?
Out: 3.8

In: And for c1ccc(CN2c3ccccc3CC2C2=NCCN2)cc1 (stereo not drawn) ?
Out: 308

In: Same for Cl.c1ccc(N2c3ccccc3CC2C2=NCCN2)cc1 (stereo not drawn)
Out: 1.1

In: And CCN1c2ccc(Cl)cc2CC1C1=NCCN1 (stereo not drawn) ?
Out: 4.2

In: Another molecule: Nc1cc(Cl)c(N=C2NCCN2)c(Cl)c1
Out: 0.7

--- query ---
In: Find the recorded ED40 belonging to CCN1c2ccccc2CC1C1=NCCN1 (stereo not drawn) and report it.
Out: 3.3

====

system: Rattus norvegicus; assay: In vivo ED40 is the raising diastolic blood pressure by 40 mm Hg in pithed rats. (postjunctional); assay type: functional; details: Artery
Recorded endpoint: ED40
Form entry: enter the amount, then its unit.

In: Reported ED40, compound CN1c2cccc(O)c2CC1C1=NCCN1 (configuration not stated) : ____
Out: 0.3 µg/kg

New cases:
In: Which ED40 is listed for CN1c2cccc(Cl)c2CC1C1=NCCN1.Cl (configuration not stated) ?
Out: 0.2 µg/kg

In: Next record, please: CN1c2c(Cl)cccc2CC1C1=NCCN1 (configuration not stated)
Out: 1.4 µg/kg

====

tested on: Rattus norvegicus; assay: In vivo antagonist dose producing two fold shift of cirazoline in pithed rats. (postjunctional);AG- agonist; format: functional, organism-based; details: filed as agonist
Recorded endpoint: ED40

In: Can you share its ED40? I mean this compound: CN1c2cccc(Cl)c2CC1C1=NCCN1.Cl (centres undefined)
Out: Agonist

In: Would you mind doing CN1c2cccc(F)c2CC1C1=NCCN1 (centres undefined) as well?
Out: Agonist

In: Let us now turn to CN1c2cccc(O)c2CC1C1=NCCN1 (centres undefined)
Out: Agonist

In: Then CN1c2ccccc2CC1C1=NCCN1 (centres undefined) ?
Out: Agonist

====

test system: Adrenergic receptor alpha-1 (Rattus norvegicus); experiment: […] towards alpha-1 adrenergic receptor determined as the dose required to produce a two fold shift of the cirazoline on diastolic blood pressure (in vitro); details: Artery
Entries and their Postjunctional antagonist potency values follow.
API note: the answer field is a bare number with no unit suffix.

Worked examples, 3 compounds total:
In: Which Postjunctional antagonist potency value is on record for c1ccc2c(c1)CC(C1=NCCN1)O2 (stereo not given) ?
Out: 0.16

In: Queued: c1ccc2c(c1)CC(C1=NCCN1)C2
Out: 0.8

In: Cool, now c1ccc(COCCN2c3ccccc3CC2C2=NCCN2)cc1 (stereo not given)
Out: 18

More entries:
In: # query: Postjunctional antagonist potency of entry c1ccc(CN2c3ccccc3CC2C2=NCCN2)cc1 (stereo not given)
Out: 120

====

The following molecules are listed with their measured Postjunctional agonist potency values.
target: Adrenergic receptor alpha-1 (Rattus norvegicus) (UniProt P15823+P23944+P43140); experiment: Agonism at alpha-1 adrenergic receptor, determined as the dose required to produce a two fold shift of the cirazoline on diastolic blood pressure.; assay type: functional, tissue-based; conditions: Artery
// print number alone

In: Bench note: what Postjunctional agonist potency did CN1c2c(Cl)cccc2CC1C1=NCCN1 (stereo unspecified) show?
Out: 3.5

In: Then this molecule: CN1c2ccccc2CC1C1=NCCN1 (stereo unspecified)
Out: 3.8

In: Subsequent entry: CCN1c2ccc(Cl)cc2CC1C1=NCCN1 (stereo unspecified)
Out: 5

In: Likewise for c1ccc2c(c1)CC(C1=NCCN1)O2 (stereo unspecified) ?
Out: 0.01

In: And what about the molecule CN1c2cccc(Cl)c2CC1C1=NCCN1.Cl (stereo unspecified) ?
Out: 17

Continuing:
In: Which measured Postjunctional agonist potency value corresponds to c1ccc(CN2c3ccccc3CC2C2=NCCN2)cc1 (stereo unspecified) ?
Out: 0

In: What would you report for CN1c2cc(Cl)ccc2CC1C1=NCCN1 (stereo unspecified) ?
Out: 0.67

In: Follow-up entry: CCN1c2ccccc2CC1(C)C1=NCCN1 (stereo unspecified)
Out: 0.03

In: Note, next up: c1ccc2c(c1)CC(C1=NCCN1)C2
Out: 0

In: Do the same for CCC1(C2=NCCN2)Cc2ccccc2N1C (stereo unspecified) please
Out: 0

====

Recorded Ki values for a group of compounds are listed next.
Biological target: Adrenergic receptor alpha-2 (Rattus norvegicus, UniProt P22086+P19328+P22909)
Sequence (P22086 whole entry): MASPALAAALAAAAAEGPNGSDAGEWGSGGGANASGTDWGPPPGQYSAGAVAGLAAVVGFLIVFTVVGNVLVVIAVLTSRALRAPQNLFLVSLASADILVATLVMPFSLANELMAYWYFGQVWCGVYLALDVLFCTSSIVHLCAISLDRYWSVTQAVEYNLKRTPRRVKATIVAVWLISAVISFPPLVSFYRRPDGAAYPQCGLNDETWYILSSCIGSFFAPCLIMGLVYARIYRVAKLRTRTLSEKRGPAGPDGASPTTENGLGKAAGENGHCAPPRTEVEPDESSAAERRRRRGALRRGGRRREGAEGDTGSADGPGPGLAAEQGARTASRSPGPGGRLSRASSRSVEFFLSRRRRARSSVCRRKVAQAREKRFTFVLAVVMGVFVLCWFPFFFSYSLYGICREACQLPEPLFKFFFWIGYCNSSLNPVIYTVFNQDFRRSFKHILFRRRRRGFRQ
Sequence (P19328 whole entry): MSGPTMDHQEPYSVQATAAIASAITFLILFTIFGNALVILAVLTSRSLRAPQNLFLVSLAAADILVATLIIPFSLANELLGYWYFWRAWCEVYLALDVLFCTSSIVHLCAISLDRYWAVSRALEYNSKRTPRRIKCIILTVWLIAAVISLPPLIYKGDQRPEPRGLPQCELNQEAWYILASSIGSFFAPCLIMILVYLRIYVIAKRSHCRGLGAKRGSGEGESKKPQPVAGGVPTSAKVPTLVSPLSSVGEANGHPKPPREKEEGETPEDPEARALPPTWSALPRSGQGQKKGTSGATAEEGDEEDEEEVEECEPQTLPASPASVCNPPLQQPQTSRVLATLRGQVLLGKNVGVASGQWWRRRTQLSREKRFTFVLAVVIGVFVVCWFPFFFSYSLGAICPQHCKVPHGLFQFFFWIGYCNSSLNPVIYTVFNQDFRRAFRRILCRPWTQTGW
Sequence (P22909 whole entry): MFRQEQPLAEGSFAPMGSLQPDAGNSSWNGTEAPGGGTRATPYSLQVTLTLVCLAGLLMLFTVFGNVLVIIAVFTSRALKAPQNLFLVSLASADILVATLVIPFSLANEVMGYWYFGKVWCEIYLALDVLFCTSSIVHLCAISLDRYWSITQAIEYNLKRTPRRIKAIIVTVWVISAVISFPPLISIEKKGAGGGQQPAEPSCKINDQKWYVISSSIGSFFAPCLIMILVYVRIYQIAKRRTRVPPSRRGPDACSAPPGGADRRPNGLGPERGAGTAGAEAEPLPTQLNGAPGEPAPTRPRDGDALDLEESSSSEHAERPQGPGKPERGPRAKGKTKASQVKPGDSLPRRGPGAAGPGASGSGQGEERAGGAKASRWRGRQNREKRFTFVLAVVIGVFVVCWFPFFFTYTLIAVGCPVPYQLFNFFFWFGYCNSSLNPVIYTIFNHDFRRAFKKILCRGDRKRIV
Experiment: Inhibition of saturable binding of [3H]idazoxan to alpha2-site in rat cerebral cortical membranes.
Format: cell membranes, Membrane
State the answer as a number, implicitly in nM.

Answered examples (6):
In: Can you look up the measured Ki of CCN1c2ccccc2CC1C1=NCCN1 (configuration not stated) for me?
Out: 0.24

In: Repeat with CCN1c2cccc(Cl)c2CC1C1=NCCN1 (configuration not stated)
Out: 0.42

In: Same thing, different compound: CCCN1c2ccccc2CC1C1=NCCN1 (configuration not stated)
Out: 0.96

In: # iterate: CN1c2ccccc2CC1C1=NCCN1 (configuration not stated)
Out: 0.69

In: Request: CN1c2cccc(Cl)c2CC1C1=NCCN1.Cl (configuration not stated)
Out: 0.16

In: // repeat for Cl.c1ccc(N2c3ccccc3CC2C2=NCCN2)cc1 (configuration not stated) and report
Out: 3

Proceed to the following item.
In: Which measured Ki value corresponds to c1ccc(CN2c3ccccc3CC2C2=NCCN2)cc1 (configuration not stated) ?
Out: 1.87
